Molecular target: Histone deacetylase 8 (Homo sapiens, UniProt Q9BY41)
Sequence (Q9BY41 whole entry): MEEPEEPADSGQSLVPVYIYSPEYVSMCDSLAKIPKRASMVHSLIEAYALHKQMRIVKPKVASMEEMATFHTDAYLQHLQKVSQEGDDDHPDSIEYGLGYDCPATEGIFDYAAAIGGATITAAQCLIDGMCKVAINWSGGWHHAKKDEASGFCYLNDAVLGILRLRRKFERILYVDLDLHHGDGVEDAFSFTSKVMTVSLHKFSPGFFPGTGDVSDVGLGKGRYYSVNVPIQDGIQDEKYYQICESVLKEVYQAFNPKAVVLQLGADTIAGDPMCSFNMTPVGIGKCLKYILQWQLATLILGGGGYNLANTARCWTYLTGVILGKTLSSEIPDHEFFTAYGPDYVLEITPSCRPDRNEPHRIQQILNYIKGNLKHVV
Note to self: these compounds have IC50 reported for Histone deacetylase 8 (Homo sapiens, UniProt Q9BY41) in various publications.
OBSERVATION_TYPE: IC50 (µM)

Study these solved cases before continuing.
COc1ccccc1C(=O)CCCCCCCC(=O)NO
0.095
C[n+]1ccsc1Br
1.2

[I] CC(C)(C)OC(=O)N1Cc2cc(OCC(=O)NO)ccc2C[C@H]1C(=O)NCCc1ccccc1
[II] NCCCC[C@H](N)C(=O)N1CC2(C[C@H]1C(=O)NCCCCCC(=O)NO)SCCS2
Query :: Smaller IC50 value, I vs II ? Provide the label of your selected option as the answer.
Result :: I
(I: 2.67 µM, II: 4.77 µM)

[1] CCNc1nc(Cl)nc2c1ncn2Cc1ccc(C(=O)Nc2ccccc2N)cc1
[2] Cc1cnc(Nc2ccc(OCCN3CCCC3)cc2)nc1Nc1ccc(C(=O)NO)cc1
Query :: # query: argmin of IC50 over 1 and 2 // respond with label for picked entry
Result :: 2

[P] CC(C)(C)NC(=O)[C@@H]1Cc2ccc(OCC(=O)NO)cc2CN1C(=O)OC(C)(C)C
[Q] COc1cc(/C=C2\SC(=O)N(CCNC(=O)Nc3c(C)n(C)n(-c4ccccc4)c3=O)C2=O)cc(OC)c1OC
Query :: Of P and Q , which shows the smaller IC50 value? # respond with the chosen item's label
Result :: Q

* * *

pIC50: −log10 of the molar value.
Below, pIC50 values reported for Histone deacetylase 8 (Homo sapiens, UniProt Q9BY41) across several publications.
OBSERVATION_TYPE: pIC50

Worked examples follow.
COc1cc2c(cc1OC)C(=O)C(CC1CCN(Cc3ccc(NC(=O)CCCCCCC(=O)NO)cc3)CC1)C2 (stereo not drawn)
6.07
Nc1nc2ncc(CNc3ccc(C(=O)NO)cc3)nc2c(=O)[nH]1
6.24

[A] COc1cc(OC)cc(N(CCNC(C)C)c2ccc3ncc(-c4cnn(CCOc5ccc(C(=O)NO)cc5)c4)nc3c2)c1
[B] CC(C)[C@@H]1NC(=O)[C@]2(C)CSC(=N2)c2csc(n2)CNC(=O)C[C@@H](/C=C(\F)CCS)OC1=O
Query :: For the pair A and B , which entry has the numerically smaller recorded pIC50? Kindly give the label for the entry you pick.
Result :: A
(A: 6.54, B: 9.39)

* * *

Hi, quick share: literature IC50 data for Histone deacetylase 8 (Homo sapiens), several sources combined.
OBSERVATION_TYPE: IC50 (nM)

O=C(NO)C1CCCCC1
3720
COc1ccc2c(c1)c(CC(=O)NCCCCCCC(=O)NO)c(C)n2C(=O)c1ccc(Cl)cc1
109

[A] Cn1cc(C#N)[n+](C)c1
[B] COc1cc(NC(=O)NOCCCCCC(=O)NO)c2nc(OC)cc(C)c2c1
[C] COc1ccc(C(=O)c2ccc3c(ccn3S(=O)(=O)c3ccc(/C=C/C(=O)NO)cc3)c2)cc1
[D] COc1ccc(NC(=O)[C@H](Cc2ccc(OCC(=O)NO)cc2)NC(=O)CCc2ccccc2)cc1
Query :: // smallest IC50 at index 0, largest at the end State the ranking by listing the labels in the requested order.
Result :: B, D, C, A

* * *

A compilation of IC50 values for Histone deacetylase 8 (Homo sapiens) from the published literature.
OBSERVATION_TYPE: IC50 (nM)

Here are 3 compounds together with their reported answers.
O=C(CCCCCCC(=O)Nc1ccc2c(c1)CCC(=O)N2)NO
94
COC(=O)[C@H](Cc1ccc(OCc2ccccc2)cc1)NS(C)(=O)=O
754000
COc1ccc(NC(=O)[C@@H]2Cc3ccc(OCC(=O)NO)cc3CN2CCc2ccccc2)cc1
1020

[1] O=C(NO)c1ccc(CCN2C(=O)c3cccc4c(N5CCOCC5)ccc(c34)C2=O)cc1
[2] O=C(NO)c1ccc(CN(Cc2ccccn2)S(=O)(=O)c2cc(F)c(F)c(F)c2F)cc1
[3] CCC(=O)CCCCC[C@H](NC(=O)C1CN(C)C1)c1ncc(-c2ccccc2)[nH]1
Query :: Rank items: key IC50, increasing. Submit the labels in the order that the ranking request calls for.
Result :: 2, 1, 3
(2: 332 nM, 1: 3050 nM, 3: 15000 nM)

[I] O=C(NO)c1cccc(-c2cn(Cc3ccccc3)nn2)c1
[II] N[C@H](Cc1ccc(Cl)cc1Cl)C(=O)Nc1ccc2[nH]c3ccccc3c2c1
Query :: Among I and II , which shows a numerically higher IC50 result? // caller expects the label of the chosen entry
Result :: II
(II: 10500 nM, I: 350 nM)

* * *

We begin with pIC50 values for Histone deacetylase 8 (Homo sapiens, UniProt Q9BY41), as collected from the published literature.
Biological target: Histone deacetylase 8 (Homo sapiens, UniProt Q9BY41)
Sequence (Q9BY41 whole entry): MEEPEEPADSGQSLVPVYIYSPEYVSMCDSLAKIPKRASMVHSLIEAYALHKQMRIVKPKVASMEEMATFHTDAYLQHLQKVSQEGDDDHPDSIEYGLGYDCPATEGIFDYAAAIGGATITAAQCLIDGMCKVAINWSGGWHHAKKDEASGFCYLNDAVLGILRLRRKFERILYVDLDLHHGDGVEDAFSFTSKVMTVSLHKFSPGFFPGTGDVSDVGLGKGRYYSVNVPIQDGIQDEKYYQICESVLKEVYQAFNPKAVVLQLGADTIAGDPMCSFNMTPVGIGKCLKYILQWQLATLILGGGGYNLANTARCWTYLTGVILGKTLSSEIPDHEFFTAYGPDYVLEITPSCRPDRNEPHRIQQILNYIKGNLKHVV
pIC50: −log10 of the molar value.
OBSERVATION_TYPE: pIC50

Worked cases, pIC50 given:
COc1ccc(CS(=O)(=O)Nc2ccc(/C=C\C(=O)NO)cc2)cc1
7.22
O=C(NO)c1cccc(S(=O)(=O)NCCc2ccccc2)c1
7.22
O=C(NO)c1csc(-c2ccccc2)n1
4.92
O=C(COc1ccc2c(c1)CN[C@H](C(=O)Nc1ccccc1)C2)NO
5.09

[I] CN(C)c1ccc(C(=O)NCCCNC(=O)CS)cc1
[II] Cc1ccc(S(=O)(=O)Nc2ccc(/C=C/C(=O)NO)cc2)cc1
Query :: Pick one: I or II . Which has the bigger pIC50 number? Identify your pick by its label.
Result :: II

[I] N[C@H](Cc1ccc(Cl)cc1Cl)C(=O)NCc1ccccc1
[II] O=C(COc1ccc2c(c1)CN[C@H](C(=O)Nc1ccc(-c3ccccc3)cc1)C2)NO
[III] COc1ccc(-c2ccc(/C=C/C=C/C(=O)NO)cc2)cc1C12CC3CC(CC(C3)C1)C2
Query :: Give the ascending ranking of the items by reported pIC50. Output spec: a listing of the labels in the requested order.
Result :: III, I, II
(III: 4.51, I: 5.37, II: 5.66)

[A] O=C(COc1ccc2c(c1)CN[C@H](C(=O)NCCc1ccccc1)C2)NO
[B] CC1(Nc2ccc(C(=O)NO)cc2)CCN(c2ccccc2)C1=O (configuration not stated)
Query :: Could you determine which record has the numerically smaller pIC50? Candidates: A and B Write down the label attached to your selection.
Result :: A

* * *

pIC50: −log10 of the molar value.
pIC50 values for Histone deacetylase 8 (Homo sapiens, UniProt Q9BY41) compiled from several publications are listed below.
OBSERVATION_TYPE: pIC50

Known results for compounds:
CNc1ccc(C(=O)NO)cc1
6.03
CCC(=O)CCCCC[C@H](NC(=O)[C@H]1CC12CCN(C)CC2)c1nnc(-c2cc3ccccc3nc2OC)[nH]1
5.71
Cc1c(NC(=O)NCCN2C(=O)S/C(=C\c3ccc([N+](=O)[O-])cc3)C2=O)c(=O)n(-c2ccccc2)n1C
6.61
Cc1c2ccc(N(C)c3ccnc(Nc4ccc(/C=C/C(=O)NO)cc4)n3)cc2nn1C
5.54
COc1ccccc1C(=O)N[C@H](COc1cccc(/C=C/C(=O)NO)c1)Cc1c[nH]c2ccccc12
7.06

[a] O=C(NO)c1cccc(C(=O)N/N=C/c2ccccc2)c1
[b] C#Cc1cnc[n+](C)c1
[c] O=C(CCCCCCc1nc2ccc(Br)cc2[nH]1)NO
[d] CC(C)(C)OC(=O)NCCCC(=O)N1CC2(C[C@H]1C(=O)NCCCCCC(=O)NO)SCCS2
Query :: Please list the entries, largest pIC50 first. Labels, requested order.
Result :: a, c, d, b
(a: 7.28, c: 6.55, d: 6.02, b: 4.68)
